Property: growth; scope: individual compounds
# Test system: KM12 colon
# assay.details: NCI-60 one-dose screen, 48 h (100 = growth as untreated, 0 = no growth, -100 = all killed)
# condition.label: 10 µM unless noted
# Method: Growth inhibition of the KM12 human tumor cell line is measured as a screen for anti-cancer activity. Cells are grown in 96 well plates and exposed to the test compound for 48 hours. Compounds are tested at a single concentration, which is 10^-5 M for most compounds. The reported endpoint is percent growth (GI% or GIPRCNT), where numbers from 0 - 100% represent growth inhibition, and numbers from -100% - 0 represent cell death. For example, a value of 40 represents 60% growth inhibition. […]
About 83,000 compounds went through this panel and 20% of them were active in at least one assay; those are over-represented in the sample as a whole.
# value in %; strip the unit string

Consider the reported growth for these compounds:
>  <compound>
CCc1ccc(/C=C/c2ccc(O)c3ncccc23)[n+](C)c1

>  <test.system>
KM12 colon

>  <obs.value>
40.2

$$$$
>  <compound>
Cc1cc2c(-c3nc4ccccn4c3NC34CC5CC(CC(C5)C3)C4)c(O)c(O)cc2c(O)c1-c1c(C)cc2c(-c3nc4ccccn4c3NC34CC5CC(CC(C5)C3)C4)c(O)c(O)cc2c1O

>  <test.system>
KM12 colon

>  <obs.value>
19.8

$$$$
>  <compound>
COC(=O)C1=C(C(=O)OC)C23C=C(C)C1C2=C(C)C1(CC1)[C@@](C)(O)C3=O (some centres undefined)

>  <test.system>
KM12 colon

>  <obs.value>
29.6

$$$$

Entry `Cc1c(NC(=O)OC[C@@H]2COCCN2)cn2ncnc(Nc3ccc4c(cnn4Cc4cccc(F)c4)c3)c12` ; growth = 8.03

Entry `O=C(NOC[C@H](O)CO)c1ccc(F)c(F)c1Nc1ccc(I)cc1F` ; growth = 24.1

Entry COC1CCC(N2C(=O)CNc3ncc(-c4ccc(C(C)(C)O)nc4)nc32)CC1 (centres undefined) ; growth = 7.39

Entry `COc1cc(-c2nc(C(=O)NCC(=O)O)nn2-c2ccc(Cl)cc2)cc(OC)c1OC` ; growth = 96.3
